TEST DETAILS: in vivo
ASSAY SETUP: rat, plasma, ip, 30 mg/kg
METRIC: level at 12 h
Include the unit after the number when you answer.

Query :: For the molecule shown here, `CCCCCCCCCC(=O)N[C@@H](Cc1c[nH]c2ccccc12)C(=O)N[C@H](CC(N)=O)C(=O)N[C@@H](CC(=O)O)C(=O)N[C@@H]1C(=O)NCC(=O)N[C@@H](CCCN)C(=O)N[C@@H](CC(=O)O)C(=O)N[C@H](C)C(=O)N[C@@H](CC(=O)O)C(=O)NCC(=O)N[C@H](CO)C(=O)N[C@@H]([C@H](C)CC(=O)O)C(=O)N[C@@H](CC(=O)c2ccccc2N)C(=O)O[C@@H]1C` , give the reported level at 12 h.
Result :: 9100 ng/mL
